Parameter: ACh rel % Inh @ 100 µM. Scope: all listed entries.
- Experimental target: β-amyloid1-42, P05067
- Test details: cell-based or functional assay

{"Binder": "Ac-IPGKRSERFYECCKEPYPDV-NH2 (cysteine pairing not given here)", "Units text": "%", "ACh rel % Inh @ 100 µM": 73}
{"Binder": "Ac-SERFYECCKEP-NH2 (cysteine pairing not given here)", "Units text": "%", "ACh rel % Inh @ 100 µM": 89}
{"Binder": "Ac-SERFYECCKEA-NH2 (cysteine pairing not given here)", "Units text": "%", "ACh rel % Inh @ 100 µM": 59}
{"Binder": "Ac-IPGKRSERFYECCKEPYP-NH2 (cysteine pairing not given here)", "Units text": "%", "ACh rel % Inh @ 100 µM": 79}
{"Binder": "Ac-AERFYECCKEP-NH2 (cysteine pairing not given here)", "Units text": "%", "ACh rel % Inh @ 100 µM": 15}
{"Binder": "Ac-SEAFYECCKEP-NH2 (cysteine pairing not given here)", "Units text": "%", "ACh rel % Inh @ 100 µM": 70}
